- System: MS2 coat protein
- ASSAY INFO: apparent KD of MS2 coat protein; designed switch direction (-1 OFF switch, 1 ON switch): -1; higher = weaker reporter binding
- PARTICULARS: input ligand: none
// label = T if apparent KD of MS2 coat protein is not less than 0.02 µM, otherwise F

MONOMER SEQUENCE	ASSIGNED LABEL
ACCAUUACCACACCCUCUAUACAUGAGGAUCACCCAUGUUCUGAGGAUAUCAUCGCUCGCCGCGUUGAGAAGGCAGAGCAUUAA [Tiisri] (Eterna round: R96, puzzle: Exclusion NG 3)	F
GAGACAGAAGGAUAUACGUCCGCGAGUGCGAUGCGCUUGGGACAUGAGGAUCACCCAUGUAGAAGGUCUAACCC [Eternabot (L1) Solution 89] (Eterna round: R97, puzzle: Exclusion 2)	T
UGCCUUUGAGGAUAUACGUAGAAAUAGAUUCAUGUAAAACUACAUGAGGAUCACCCAUGUAGAAGGCAAGGGCU [Mat - Exclusion 2 - JL Mod - D48] (Eterna round: R97, puzzle: Exclusion 2)	T
ACGCGUGGCUAGGAUAUGCAGAAAUCUAGCCAGGCAGAAGGAGCCACAUGAGGAUCACCCAUGUGGUGAUCCUC [eternacac ex6r4 sub1] (Eterna round: R97, puzzle: Exclusion 6)	F
UUUUUAUAUGAAGGAUAUACUUAACAUGAGGAUCACCCAUGUGGUGUUGUGAGUGAGUGAGUUUAGUAGAAGGUCAAGUAUUUC [JMF's solution 43] (Eterna round: R96, puzzle: Exclusion NG 2)	T
UGAUCAGACCGAGGAUAUAUAUGUAGGACCCACGUGAGUGGGUCCAGUACAUGAGGAUCACCCAUGUAGAAGGCGGUCUGAUCU [JL ENG2 1.87] (Eterna round: R96, puzzle: Exclusion NG 2)	F
CGUCGACAUGUAGGAUAUCUGCACGAUUAGUGCAGAGAAGGACAUGAGGAUCACCCAUGUAGAUCACGACGAAUUAAUUUAAUU [ENG1/6-C1] (Eterna round: R96, puzzle: Exclusion NG 1)	T
AUAAUUAAUGCAGGAUAUCAGCACGAUUAGUGCUGAGAAGGGCACAUGAGGAUCACCCAUGUGAUCAAUUAAUAUUAAUAUUAU [ENG1/11-D1] (Eterna round: R96, puzzle: Exclusion NG 1)	T
UAUUUAAGAGGAUAUACAUGAGGAUCACCCAUGUAUAAUAAAAUACAUGAUUUUUUAUGUAGAAGGCUUGGGUA [-19.1, -18.3 kcal, 36% A] (Eterna round: R97, puzzle: Exclusion 3)	T
CCCUCACUUGAGGAUCACCCAAGUCAGGAUAUCUCCCGCCCAACACCAUCCGGGCGCCAGAGAAGGGACUCAAA [Soenonor] (Eterna round: R97, puzzle: Exclusion 1)	F
GCAGCAUUGUUUACUAACAGUUACAUGAGGAUCACCCAUGUUCAGGAUAUGGUCUGGAUUACAGGCCAGAAGGGAACAAGCUGC [Eli exng3 - 031] (Eterna round: R96, puzzle: Exclusion NG 3)	F
AUGUUACAUGAGGAUCACCCAUGUGAGGAUAUGAGUCAGUCACGGUGACGUGGCUGACUCAGAAGGCACAAAGG [JL-ex1-4.38 salish99 mod] (Eterna round: R97, puzzle: Exclusion 1)	T
GCAUGCUAUGUCAGGAUAUACCUGUGGAUACAUAGGUAGAAGGGACAUGAGGAUCACCCAUGUCCUAAUCAUGC [Fiskers BMX 4 - 24] (Eterna round: R96, puzzle: Brourd's mod of Exclusion 4)	F
UCAGGCAAGUGUACAGCCAACAUGAGGAUCACCCAUGUCGGGAGAAGGACUGUUACACACCGCUCGUCUUACUUGCC [Eternabot (Original) Solution 35] (Eterna round: R97, puzzle: Sensor, turn-off variant 1)	T
ACUUAUUGAGGAUAUACAUAAAUUUACAUGAGGAUCACCCAUGUUCUUCUAUGUAUAUAUGUAGAAGGCAGAAGAU [Mat - Exclusion 5 - JL Mod - D32] (Eterna round: R97, puzzle: Exclusion 5)	F
UUAUCCCAUGUGAGGAUAUUAUUUUAAAGAUGCAAUGAGAAGGUACAUGAGGAUCACCCAUGUCCGCGAAAUAU [Eternabot (L2) Solution 57] (Eterna round: R97, puzzle: Brourd's mod of Exclusion 4)	F
GCAGCAUAGAUUACUAGCUGUUACAUGAGGAUCACCCAUGUUCAGGAUAUGGUCUGGAUUACAGGCCAGAAGGGAACAAGCUGC [finally!] (Eterna round: R96, puzzle: Exclusion NG 3)	F
AAGAUGUGAGGAUAUCACGAGAGCGUCACACGGACGCCCUCUGAGAAGGCACAUGAGGAUCACCCAUGUCCAAA [EX4 A.22] (Eterna round: R97, puzzle: Exclusion 4)	T

====

The sequences listed here are annotated with their apparent KD of K4 kissing-loop reporter.
- Tested on: K4 kissing-loop RNA reporter;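 further: bound reporter read as fluorescence of individual clusters on recovered sequencing chips by microscopy, with normalized cluster intensities fitted with a binding model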
- ASSAY INFO: apparent KD of K4 kissing-loop reporter; higher = weaker reporter binding
- PARTICULARS: Eterna round: R107; input ligand: theophylline 20 uM

MONOMER SEQUENCE	TARGET	UNIT ABBREVIATION	apparent KD of K4 kissing-loop reporter
CUAUAUAGUGAUGUUAUAUAGAUAACAGAUACCAGCUAGAAAACUAGCCCUUGGCAGCUGAUAAGGGAAAGUAUAAUUGUGUAAA [AstroSTH-A#DifdesignED20.18]	K4 kissing-loop RNA reporter	nM	64.8
AAGUAGUCCCUUGUUGUCAUCGAAGAUGAACGAGGACCGGUACGGCCGCCACUCGGAGUGAUGUUCCGAUGGCUGCAAAAUAAAA [MatMod 22 - Jieux - Exclusion - Tryptophan A]	K4 kissing-loop RNA reporter	nM	91.4
CCGCUACCCUCAGGAUAUUAAGUAUUAGUGAUGUUAGUAAACCGAUGGCGAAAGCCAUCGGUAUGUUGAGAAGGGAGGGUAGCGG [whbob_SS_FMNB__2th198]	K4 kissing-loop RNA reporter	nM	847

====

- System: MS2 coat protein
- ASSAY INFO: apparent KD of MS2 coat protein; higher = weaker reporter binding
- PARTICULARS: Eterna round: R107; input ligand: theophylline 20 uM

MONOMER SEQUENCE	TARGET	apparent KD of MS2 coat protein (nM)
AUUUAUUGUCGUGAUACCAGACAUACAUGAGGAUCACCCAUGUUAAGUAACUUUUUUCAGGUCCCUUGGCAGCACUUUUUAAUUA [JR_Nu_SSTheophyB_Sub019]	MS2 coat protein	23.8
CAUUAUGUAACUGAUACCAGUGUACUGACAUGAGGAUCACCCAUGUUGGGUUUUGUUGUACACCCUUGGCAGCAGAAUCAUAAUG [AstrosExyTheB#2]	MS2 coat protein	70.3
UUAAUUAUAUAUUAUUUAAUAUUUACAGAAGGAGCGUGAUAAAACACAGGUAGGUCGCUGAAGGGAACAUGAGGAUCACCCAUGU [AstrosSSArgA#20]	MS2 coat protein	41.6
CCAUAGGGUAAAUACGUAAUCAUAUCUGAAGGAGCGUGGAUAUACACAGGUAGGUCGCAGAAUCACAUGAGGAUCACCCAUGUCU [Same State Arginine A GF12]	MS2 coat protein	39.8
AAUAAUAAGGCGGCCGCCACUACACAUGAGGAUCACCCAUGUCUCGCGGGCUUGCGUUGGGAAUGUAGGACCGGGCCAAUAAUAA [Exclusion - Tryptophan B (Freestyle 10)]	MS2 coat protein	25.8
GCACAUGAGGAUCACCCAUGUAUUACUGAAGGAGCGAGACAGAACUCAGGUAGGUCGCAGACUGCACAAUUGCGGACGACAUGGG [Exclusion Arginine A GF22]	MS2 coat protein	41
ACGAUAGGACCUGAGGAUCACCCAGGUGAUACCAGCCUGGAAACAGGCCCUUGGCAGCACCAAUACUCCAAUAACCUAUCGAAUA [TheoAX 11 #MicroSwitchBubble #AlternativeMS2]	MS2 coat protein	442
UCGCUCUGGGUGAGAUCCGGAGAUAUGGAAGGAGCGCUGAUUCCAGCAGGUAGGUCGCCAACGGACAUGAGGAUCACCCAUGUAC [Same State - Arginine A (Freestyle 11)]	MS2 coat protein	60.4
GGAUAGGACAGAAGGAGCGACAUGCGACGAAAGUCGAAAAGAUCACAUGAGGAUCACCCAUGUCAGGUAGGUCGCUGUCCUAUCG [ArgXB 10 #Zipper #MS2Left #StaticStem #Blueprint]	MS2 coat protein	115
AGGACAUGAGGAUCACCCAUGUACUCUGAAGGAGCGUCGAGAACGACAGGUAGGUCGCAGGCUAAGGAAGGUGAUGCUCAAGAAG [Exclusion Arginine A GF7]	MS2 coat protein	37.3
GGGCGCGUGGACCGGCGUGCUCCGCUCCGUCGAGGACCGGUACGGCCGCCACUCGACAUGAGGAUCACCCAUGUGUGAGCUCGCG [#1 Exclusion - Tryptophan A Attempt #16 (HarryS)]	MS2 coat protein	63.6
ACCUCAUAGGCGGCCGCCACUGUAAUGACUACGUCAAACAUGAGGAUCACCCAUGUAGUCAAUCACAGGACCGGGUCAUGGGUAG [Tryp B SS s2]	MS2 coat protein	45.6
CUGACAGACUCGGCCGCCACUGAUAGUAGGACAUGAGGAUCACCCAUGUAAACAAACCUCAUAGCCAGGACCGGGAGUCACGAAG [Same State Tryptophan B GF 21]	MS2 coat protein	57.1
GGCCCUGCGAGCGCUCGCAGGGCCGCGGAUACCAGCGAGGUCCAUCGCCCUUGGCAGCCGAACAUGAGGAUCACCCAUGUCGGUA [#1 Same State - Theophylline A Attempt #13 (HarryS)]	MS2 coat protein	12.9
GUAUCUAUGUGAAAUAGAUAUGUAACUGAAGGAGCGUCAUUAAGGACAGGUAGGUCGCGGAGCACAUGAGGAUCACCCAUGUCGG [#09 Same State - Arginine A]	MS2 coat protein	31.1
UCGGGCAGAGCGGCCGCCACUGUUUGGCGUGCGGAUGACGGAACAUGAGGAUCACCCAUGUUGAUUAGGACCGGGCUUGCGGAGA [qpqullin]	MS2 coat protein	24.1
GCGAUGGAGCGAAGGAGCGGCUAUCACCGACAAAACAUGAGGAUCACCCAUGUUGGCAGUGGCCAGGUAGGUCGCGCUCCAUCGC [EAB NP+V+V2 #8]	MS2 coat protein	12.3
UGACGAUACCUGGAUACCAGCGACAUGAGGAUCACCCAUGUAUGAGGAUCAGCCAUGUUAUGCCCUUGGCAGCCACGAAAGUCUU [UUUMULLIN]	MS2 coat protein	115
UGUUUGGUGCGCGAGUGUUGGAUAAUUGAUACCAGUGAAGAAGAGCGCCCUUGGCAGCGAAUCCUAACAUGAGGAUCACCCAUGU [5.U]	MS2 coat protein	84.8
UGUCAGCGAAAGUUGACAUGUCUUGCUGGUCGAGGACCGGUACGGCCGCCACUCGAUCUCUCGCACAUGAGGAUCACCCAUGUUG [SS Tryp A #23]	MS2 coat protein	14.4
GGACUCGUCACGGCCGCCACUGCGGUGGUGUGACAUGAGGAUCACCCAUGUUGUCAUGCGGCCCUUAGGACCGGGUGUCGCUUCC [#1 Exclusion - Tryptophan B Attempt #24 (HarryS)]	MS2 coat protein	221
AACAUGAGCACGGCCGCCACUCCAUGAACAUGAGGAUCACCCAUACACAUGAGGAUCACCCAUGUGAGGACCGGGUGUCCAUGUG [Exclusion Tryptophan B 2]	MS2 coat protein	18.7

Source listed as the supplement of paper PMC9170038.
